measured.on: ternary complex CRBN/PROTAC/METTL3–14 (Homo sapiens, UniProt Q86U44+Q96SW2)
Construct: methyltransferase domains (MTD) of METTL3 (residues 354–580); His6 (N, cleaved yes); made in house; host or cells: METTL3-MTD/METTL14-MTD: baculovirus/Sf9; CRBN-TBD: E. coli Rosetta (DE3), co-expressed with BirA
Sequence (Q86U44 354-580): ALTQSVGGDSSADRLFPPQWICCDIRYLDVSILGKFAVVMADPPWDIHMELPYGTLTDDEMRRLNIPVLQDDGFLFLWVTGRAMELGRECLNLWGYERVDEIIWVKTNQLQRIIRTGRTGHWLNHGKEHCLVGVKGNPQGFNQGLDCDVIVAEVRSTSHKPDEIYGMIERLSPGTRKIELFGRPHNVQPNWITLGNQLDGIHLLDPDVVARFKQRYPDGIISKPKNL
Sequence (Q9HCE5 107-395 partner limits assumed): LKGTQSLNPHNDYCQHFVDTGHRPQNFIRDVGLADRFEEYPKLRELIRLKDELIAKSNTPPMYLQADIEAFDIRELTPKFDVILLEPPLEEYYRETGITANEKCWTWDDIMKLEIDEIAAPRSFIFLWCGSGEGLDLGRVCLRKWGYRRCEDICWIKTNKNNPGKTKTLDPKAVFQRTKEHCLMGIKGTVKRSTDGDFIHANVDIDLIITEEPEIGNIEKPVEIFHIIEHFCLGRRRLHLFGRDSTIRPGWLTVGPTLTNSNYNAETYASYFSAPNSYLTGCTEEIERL
Sequence (Q96SW2 318-442): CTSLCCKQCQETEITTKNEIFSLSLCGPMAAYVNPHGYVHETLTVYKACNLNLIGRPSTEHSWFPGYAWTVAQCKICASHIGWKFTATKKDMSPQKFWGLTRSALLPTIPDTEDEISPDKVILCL
test.summary: FRET-based ternary complex formation assay (TCFA)
Format: binding
experimental.parameters: PROTAC concentration at the maximum of the signal in the TCFA
Procedure: For protein expression, suspension cultures of Sf9 cells in […] medium (Thermo Fisher) were infected at a density of 2 × 10^6 mL^–1. […] The complex was further purified by size exclusion chromatography using a Superdex 200 Increase 10/300 GL column (Cytiva) in 20 mM Tris-Cl, pH 8.0, and 200 mM KCl. […] Ternary complex formation between the PROTACs, METTL3, and CRBN was quantified by a homogeneous time-resolved fluorescence (HTRF)-based enzyme assay. […]
Measured ECmax (nM) ± SD by item
Report only the number, with the unit nM understood.

CC1(C)CCN(Cc2cc(F)c(N3CC(=O)NC4(CCN(c5cc(NCCCNC(=O)CCCCCCCCNc6cccc7c6CN(C6CCC(=O)NC6=O)C7=O)ncn5)CC4)C3)cc2F)CC1 (stereo not drawn) [Compound 10] : 200
CC1(C)CCN(Cc2cc(F)c(N3CC(=O)NC4(CCN(c5cc(NCc6cccc(CNC(=O)CCCNc7cccc8c7C(=O)N(C7CCC(=O)NC7=O)C8=O)c6)ncn5)CC4)C3)cc2F)CC1 (stereo not drawn) [Compound 14] : 250

With those in mind, consider the next molecule.
Q: Can you look up ECmax (nM) ± SD on ternary complex CRBN/PROTAC/METTL3–14 (Homo sapiens, UniProt Q86U44+Q96SW2) for CC1(C)CCN(Cc2cc(F)c(N3CC(=O)NC4(CCN(c5cc(NCc6cccc(CNC(=O)CCCCCCCCCCn7cc(CNc8cccc9c8C(=O)N(C8CCC(=O)NC8=O)C9=O)nn7)c6)ncn5)CC4)C3)cc2F)CC1 (stereo not drawn) [Compound 20] ?
Result: 860

* * *

measured.on: ternary complex CRBN/PROTAC/METTL3–14 (Homo sapiens, UniProt Q86U44+Q96SW2)
Construct: methyltransferase domains (MTD) of METTL3 (residues 354–580); His6 (N, cleaved yes); made in house; host or cells: METTL3-MTD/METTL14-MTD: baculovirus/Sf9; CRBN-TBD: E. coli Rosetta (DE3), co-expressed with BirA
test.summary: FRET-based ternary complex formation assay (TCFA)
Type: binding
experimental.parameters: PROTAC concentration at the maximum of the signal in the TCFA
outcome.measure: ECmax (nM) ± SD

CC1(C)CCN(Cc2ccc(N3CC(=O)NC4(CCN(c5cc(NCCCNC(=O)CCOCCOCCOCCOCCOCCNc6cccc7c6C(=O)N(C6CCC(=O)NC6=O)C7=O)ncn5)CC4)C3)cc2)CC1 (centres unmarked) : 2000 (n = 1) nM
CC1(C)CCN(Cc2cc(F)c(N3CC(=O)NC4(CCN(c5cc(NCC6CCN(C(=O)CNc7cccc8c7C(=O)N(C7CCC(=O)NC7=O)C8=O)CC6)ncn5)CC4)C3)cc2F)CC1 (centres unmarked) : 60 ± 30 nM

Q: Using the record for CC1(C)CCN(Cc2ccc(N3CC(=O)NC4(CCN(c5cc(NCCCNC(=O)CCCCCCCCn6cc(CNc7cccc8c7C(=O)N(C7CCC(=O)NC7=O)C8=O)nn6)ncn5)CC4)C3)cc2)CC1 (centres unmarked) , report its ECmax (nM) ± SD.
Result: 6700 (n = 1) nM

Q: Using the record for CC1(C)CCN(Cc2cc(F)c(N3CC(=O)NC4(CCN(c5cc(NCC6CCN(C(=O)CCCNc7cccc8c7C(=O)N(C7CCC(=O)NC7=O)C8=O)CC6)ncn5)CC4)C3)cc2F)CC1 (centres unmarked) , report its ECmax (nM) ± SD.
Result: 190 ± 90 nM

Q: Using the record for CC1(C)CCN(Cc2cc(F)c(N3CC(=O)NC4(CCN(c5cc(NCCCNC(=O)CCCCCCCCn6cc(CNc7cccc8c7C(=O)N(C7CCC(=O)NC7=O)C8=O)nn6)ncn5)CC4)C3)cc2F)CC1 (centres unmarked) , report its ECmax (nM) ± SD.
Result: 320 ± 160 nM

* * *

measured.on: METTL3-14 (Homo sapiens)
Sequence (Q86U44 whole entry): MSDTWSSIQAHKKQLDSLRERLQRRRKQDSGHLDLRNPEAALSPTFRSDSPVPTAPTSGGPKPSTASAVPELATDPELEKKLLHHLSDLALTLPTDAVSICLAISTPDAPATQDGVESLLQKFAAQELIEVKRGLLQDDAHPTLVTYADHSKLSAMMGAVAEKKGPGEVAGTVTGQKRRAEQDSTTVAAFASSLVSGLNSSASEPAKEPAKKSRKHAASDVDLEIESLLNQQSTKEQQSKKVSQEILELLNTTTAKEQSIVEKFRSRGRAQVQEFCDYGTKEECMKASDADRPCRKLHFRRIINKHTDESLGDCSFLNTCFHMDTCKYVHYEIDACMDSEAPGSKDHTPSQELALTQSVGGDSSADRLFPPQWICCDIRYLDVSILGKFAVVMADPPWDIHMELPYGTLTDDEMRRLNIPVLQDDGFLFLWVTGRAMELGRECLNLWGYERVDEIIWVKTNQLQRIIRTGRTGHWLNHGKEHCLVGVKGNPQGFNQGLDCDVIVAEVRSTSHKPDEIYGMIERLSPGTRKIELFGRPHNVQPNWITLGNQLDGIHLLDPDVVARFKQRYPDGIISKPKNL
Sequence (Q9HCE5 whole entry, further chain): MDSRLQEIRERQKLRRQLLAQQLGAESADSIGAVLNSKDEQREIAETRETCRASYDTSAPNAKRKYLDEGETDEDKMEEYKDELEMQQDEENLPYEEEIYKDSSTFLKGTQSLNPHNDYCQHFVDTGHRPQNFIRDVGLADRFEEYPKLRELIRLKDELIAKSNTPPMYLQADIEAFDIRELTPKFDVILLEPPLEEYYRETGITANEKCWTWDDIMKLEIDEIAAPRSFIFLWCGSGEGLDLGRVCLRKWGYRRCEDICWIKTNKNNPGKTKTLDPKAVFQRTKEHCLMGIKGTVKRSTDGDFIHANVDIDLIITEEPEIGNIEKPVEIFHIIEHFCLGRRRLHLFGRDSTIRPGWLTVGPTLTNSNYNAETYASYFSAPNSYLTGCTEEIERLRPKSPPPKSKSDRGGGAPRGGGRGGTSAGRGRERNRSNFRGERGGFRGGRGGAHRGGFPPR
test.summary: biochemical
Set-up: with the full-length complex, the recombinant complex construct pFastBacDual-StrepII-GFP-TEV-METTL3-His-TEV-METTL14 was expressed; StrepII (N); GFP (N); TEV site (N); made in house; host or cells: baculovirus/Sf9 insect cells
experimental.parameters: inhibition of catalytic activity of METTL3-14, binary FRET assay
Measured IC50 by item
Report only the number, with the unit nM understood.

Sample records with IC50:
CC1(C)CCN(Cc2cc(F)c(N3CC(=O)NC4(CCN(c5cc(NCc6cccc(CNC(=O)CCCCCNc7cccc8c7C(=O)N(C7CCC(=O)NC7=O)C8=O)c6)ncn5)CC4)C3)cc2F)CC1 (stereo not drawn) : 33
CC1(C)CCN(Cc2ccc(N3CC(=O)NC4(CCN(c5cc(NCCCNC(=O)CCCCCCCCCCCCCCNc6cccc7c6CN(C6CCC(=O)NC6=O)C7=O)ncn5)CC4)C3)cc2)CC1 (stereo not drawn) : 1220

With those in mind, consider the next compound.
Q: Using the record for CC1(C)CCN(Cc2cc(F)c(N3CC(=O)NC4(CCN(c5cc(NCc6cccc(CNC(=O)CCCCCCCCn7cc(CNc8cccc9c8C(=O)N(C8CCC(=O)NC8=O)C9=O)nn7)c6)ncn5)CC4)C3)cc2F)CC1 (stereo not drawn) , report its IC50.
Result: 88

* * *

test.summary: Cell viability assay (CellTiter-Glo) on MOLM-13
Format: cell-based
experimental.parameters: human, MOLM-13 cells, 10 µM, average of two biological replicates
Measured viability at 72 h, 10 µM by item
Report only the number, with the unit % understood.

Sample records with viability at 72 h, 10 µM:
CC1(C)CCN(Cc2cc(F)c(N3CC(=O)NC4(CCN(c5cc(NCC6CCN(C(=O)CCCCCCCNc7cccc8c7C(=O)N(C7CCC(=O)NC7=O)C8=O)CC6)ncn5)CC4)C3)cc2F)CC1 (centres unmarked) [Compound 25] : 83.2
CC1(C)CCN(Cc2cc(F)c(N3CC(=O)NC4(CCN(c5cc(NCC6CCN(C(=O)CNc7cccc8c7C(=O)N(C7CCC(=O)NC7=O)C8=O)CC6)ncn5)CC4)C3)cc2F)CC1 (centres unmarked) [Compound 21] : 102
CC1(C)CCN(Cc2cc(F)c(N3CC(=O)NC4(CCN(c5cc(NCC6CCN(C(=O)CCCNc7ccc8c(c7)C(=O)N(C7CCC(=O)NC7=O)C8=O)CC6)ncn5)CC4)C3)cc2F)CC1 (centres unmarked) [Compound 23] : 78.2

Q: Using the record for CC1(C)CCN(Cc2cc(F)c(N3CC(=O)NC4(CCN(c5cc(NCc6cccc(CNC(=O)CCCCCCCCCCNc7cccc8c7CN(C7CCC(=O)NC7=O)C8=O)c6)ncn5)CC4)C3)cc2F)CC1 (centres unmarked) [Compound 17] , report its viability at 72 h, 10 µM.
Result: 106

Q: Using the record for CC1(C)CCN(Cc2cc(F)c(N3CC(=O)NC4(CCN(c5cc(NCC6CCN(C(=O)CCCCCNc7cccc8c7C(=O)N(C7CCC(=O)NC7=O)C8=O)CC6)ncn5)CC4)C3)cc2F)CC1 (centres unmarked) [Compound 24] , report its viability at 72 h, 10 µM.
Result: 91

* * *

test.summary: Cell viability assay (CellTiter-Glo) on MOLM-13
Assay type: cell-based
experimental.parameters: human, MOLM-13 cells, 10 µM, average of two biological replicates
Criterion: viability at 72 h, 10 µM strictly less than 90%. Met: Yes. Not met: No.

The examples below pair each entry with its known result.
CC1(C)CCN(Cc2cc(F)c(N3CC(=O)NC4(CCN(c5cc(NCC6CCN(C(=O)CCCNc7cccc8c7C(=O)N(C7CCC(=O)NC7=O)C8=O)CC6)ncn5)CC4)C3)cc2F)CC1 (stereo not shown) [Compound 22] : Yes
CC1(C)CCN(Cc2cc(F)c(N3CC(=O)NC4(CCN(c5cc(NCc6cccc(CNC(=O)CCn7cc(CNc8cccc9c8C(=O)N(C8CCC(=O)NC8=O)C9=O)nn7)c6)ncn5)CC4)C3)cc2F)CC1 (stereo not shown) [Compound 18] : No
CC1(C)CCN(Cc2cc(F)c(N3CC(=O)NC4(CCN(c5cc(NCC6CCN(C(=O)CN7CCN(c8cccc9c8C(=O)N(C8CCC(=O)NC8=O)C9=O)CC7)CC6)ncn5)CC4)C3)cc2F)CC1 (stereo not shown) [Compound 35] : No

Q: For CC1(C)CCN(Cc2cc(F)c(N3CC(=O)NC4(CCN(c5cc(NCc6cccc(CNC(=O)CCCCCCCCNc7cccc8c7CN(C7CCC(=O)NC7=O)C8=O)c6)ncn5)CC4)C3)cc2F)CC1 (stereo not shown) [Compound 16] , is the recorded viability at 72 h, 10 µM below the cut-off of 90%?
Result: No

Q: For CC1(C)CCN(Cc2cc(F)c(N3CC(=O)NC4(CCN(c5cc(NCc6cccc(CNC(=O)CCCCCNc7cccc8c7C(=O)N(C7CCC(=O)NC7=O)C8=O)c6)ncn5)CC4)C3)cc2F)CC1 (stereo not shown) [Compound 15] , is the recorded viability at 72 h, 10 µM below the cut-off of 90%?
Result: Yes

Q: For CC1(C)CCN(Cc2cc(F)c(N3CC(=O)NC4(CCN(c5cc(NCCCNC(=O)CCCCCCCCn6cc(CNc7cccc8c7C(=O)N(C7CCC(=O)NC7=O)C8=O)nn6)ncn5)CC4)C3)cc2F)CC1 (stereo not shown) [Compound 12] , is the recorded viability at 72 h, 10 µM below the cut-off of 90%?
Result: No

Q: For CC1(C)CCN(Cc2cc(F)c(N3CC(=O)NC4(CCN(c5cc(NCCN6CCN(C(=O)CCCCCNc7cccc8c7C(=O)N(C7CCC(=O)NC7=O)C8=O)CC6)ncn5)CC4)C3)cc2F)CC1 (stereo not shown) [Compound 30] , is the recorded viability at 72 h, 10 µM below the cut-off of 90%?
Result: Yes

Q: For CC1(C)CCN(Cc2cc(F)c(N3CC(=O)NC4(CCN(c5cc(NCCN6CCN(C(=O)CCCCCCCNc7cccc8c7C(=O)N(C7CCC(=O)NC7=O)C8=O)CC6)ncn5)CC4)C3)cc2F)CC1 (stereo not shown) [Compound 31] , is the recorded viability at 72 h, 10 µM below the cut-off of 90%?
Result: Yes

Q: For CC1(C)CCN(Cc2cc(F)c(N3CC(=O)NC4(CCN(c5cc(NCCCNC(=O)CCCCCCCCCCNc6cccc7c6CN(C6CCC(=O)NC6=O)C7=O)ncn5)CC4)C3)cc2F)CC1 (stereo not shown) [Compound 11] , is the recorded viability at 72 h, 10 µM below the cut-off of 90%?
Result: Yes

Q: For CC1(C)CCN(Cc2cc(F)c(N3CC(=O)NC4(CCN(c5cc(NCc6cccc(CNC(=O)CCCNc7cccc8c7C(=O)N(C7CCC(=O)NC7=O)C8=O)c6)ncn5)CC4)C3)cc2F)CC1 (stereo not shown) [Compound 14] , is the recorded viability at 72 h, 10 µM below the cut-off of 90%?
Result: No

Q: For CC1(C)CCN(Cc2cc(F)c(N3CC(=O)NC4(CCN(c5cc(NCCN6CCN(c7cccc8c7C(=O)N(C7CCC(=O)NC7=O)C8=O)CC6)ncn5)CC4)C3)cc2F)CC1 (stereo not shown) [Compound 32] , is the recorded viability at 72 h, 10 µM below the cut-off of 90%?
Result: Yes

Q: For CC1(C)CCN(Cc2cc(F)c(N3CC(=O)NC4(CCN(c5cc(NCCCNC(=O)CCCCCCCCNc6cccc7c6CN(C6CCC(=O)NC6=O)C7=O)ncn5)CC4)C3)cc2F)CC1 (stereo not shown) [Compound 10] , is the recorded viability at 72 h, 10 µM below the cut-off of 90%?
Result: Yes

These data points were gathered from paper PMC10900215.
